Assay: AUC (0 to last) in C57BL/6 mouse plasma at 1 mg/kg, sc by LC-MS analysis
Assay type: ADME, organism-based
Set-up: dose 1 mg/kg, time 0 - last, route subcutaneous
Numbered stars: 1 amine (or outer) side, 2 acyl side, 3 side chain; on linkers, the order of the positions; unused ones are H or OH. Bridge positions count the residues as written; N and C are the ends. Peptide text beside a SMILES is read from it. * marks the point of attachment. X1 = O=C(O)CCCCCCCCCCCCCCCCC(=O)N[C@@H](CCCCNC(=O)CCOCCOCCNC(=O)CCOCCOCCNC(=O)C*)C(=O)O; X2 = O=C(CCC[*:2])[*:1]
quantity: AUC(0-t)
The answer consists of two parts: a number and, after it, its unit.

input: Give the measured AUC(0-t) of CC[C@H](C)[C@@H]1NC(=O)[C@H](Cc2ccc(O)cc2)NC(=O)CCCSC[C@@H](C(=O)NCC(=O)N[C@@H](CSCC(=O)NCCOCCOCCC(=O)NCCOCCOCCC(=O)NCCCC[C@H](NC(=O)CCCCCCCCCCCCCCCCC(=O)O)C(=O)O)C(=O)NCC(N)=O)NC(=O)[C@H](CC(N)=O)NC(=O)[C@H](CCC(N)=O)NC1=O (YIQNCGC(X1)G-NH2; linker N-5 via X2) .
output: 350 µg·h/mL

====

Experiment: Tmax in C57BL/6 mouse plasma at 1 mg/kg, sc by LC-MS analysis
Assay type: ADME, organism-based
Numbered stars: 1 amine (or outer) side, 2 acyl side, 3 side chain; on linkers, the order of the positions; unused ones are H or OH. Bridge positions count the residues as written; N and C are the ends. Peptide text beside a SMILES is read from it. * marks the point of attachment. X1 = O=C(O)CCCCCCCCCCCCCCCCC(=O)N[C@@H](CCCCNC(=O)CCOCCOCCNC(=O)CCOCCOCCNC(=O)C*)C(=O)O; X2 = O=C(CCC[*:2])[*:1]
quantity: Tmax (h)
// return numeric value only (unit: h, not printed)

input: Give the measured Tmax of CC[C@H](C)[C@@H]1NC(=O)[C@H](Cc2ccc(O)cc2)NC(=O)CCCSC[C@@H](C(=O)NCC(=O)N[C@@H](CSCC(=O)NCCOCCOCCC(=O)NCCOCCOCCC(=O)NCCCC[C@H](NC(=O)CCCCCCCCCCCCCCCCC(=O)O)C(=O)O)C(=O)NCC(N)=O)NC(=O)[C@H](CC(N)=O)NC(=O)[C@H](CCC(N)=O)NC1=O (YIQNCGC(X1)G-NH2; linker N-5 via X2) .
output: 7

====

Target: Oxytocin receptor (Homo sapiens)
Assay: Ratio of EC50 for agonist activity at recombinant human Gi/Go-coupled OTR expressed in CHOK1 cells in presence of 10% FBS to EC50 for agonist activity at recombinant human Gi/Go-coupled OTR expressed in CHOK1 cells in absence of 10% FBS
Type: cell-based
Numbered stars: 1 amine (or outer) side, 2 acyl side, 3 side chain; on linkers, the order of the positions; unused ones are H or OH. Bridge positions count the residues as written; N and C are the ends. Square brackets hold non-standard residues; d marks the D form. Peptide text beside a SMILES is read from it. * marks the point of attachment. X1 = O=C(O)CCCCCCCCCCCCCCCCC(=O)N[C@@H](CCCCNC(=O)CCOCCOCCNC(=O)CCOCCOCCNC(=O)C*)C(=O)O; X4 = O=C(O)CCCCCCCCCCCCCCCCC(=O)NCCOCCOCCOCCNC(=O)C*; X3 = CCCCCCCCCCCCCC(=O)NCCOCCOCCNC(=O)C*; X2 = O=C(CCC[*:2])[*:1]; Sar = CNCC(=O)O
quantity: Ratio EC50
Give the figure only, with no unit attached.

These recorded examples may help you get a feel for the data.
CCCCCCCCCCCCCC(=O)NCCOCCOCCNC(=O)CSC[C@H](NC(=O)CNC(=O)[C@@H]1CSCCCC(=O)N[C@@H](Cc2ccc(O)cc2)C(=O)N[C@@H]([C@@H](C)CC)C(=O)N[C@@H](CCC(N)=O)C(=O)N[C@@H](CC(N)=O)C(=O)N1)C(=O)N(C)CC(N)=O (YIQNCGC(X3)[Sar]-NH2; linker N-5 via X2); 5.4
CC[C@H](C)[C@@H]1NC(=O)[C@H](Cc2ccc(O)cc2)NC(=O)CCCSC[C@@H](C(=O)NCC(=O)N[C@@H](CSCC(=O)NCCOCCOCCC(=O)NCCOCCOCCC(=O)NCCCC[C@H](NC(=O)CCCCCCCCCCCCCCCCC(=O)O)C(=O)O)C(=O)N(C)CC(N)=O)NC(=O)[C@H](CC(N)=O)NC(=O)[C@H](CCC(N)=O)NC1=O (YIQNCGC(X1)[Sar]-NH2; linker N-5 via X2); 7.08
CC[C@H](C)[C@@H]1NC(=O)[C@H](Cc2ccc(O)cc2)NC(=O)CCCSC[C@@H](C(=O)NCC(=O)N[C@@H](CSCC(=O)NCCOCCOCCOCCNC(=O)CCCCCCCCCCCCCCCCC(=O)O)C(=O)N(C)CC(N)=O)NC(=O)[C@H](CC(N)=O)NC(=O)[C@H](CCC(N)=O)NC1=O (YIQNCGC(X4)[Sar]-NH2; linker N-5 via X2); 15.9

input: Give the measured Ratio EC50 of CC[C@H](C)[C@@H]1NC(=O)[C@H](Cc2ccc(O)cc2)NC(=O)CCCSC[C@@H](C(=O)NCC(=O)N[C@@H](CSCC(=O)NCCOCCOCCC(=O)NCCOCCOCCC(=O)NCCCC[C@H](NC(=O)CCCCCCCCCCCCCCCCC(=O)O)C(=O)O)C(=O)NCC(N)=O)NC(=O)[C@H](CC(N)=O)NC(=O)[C@H](CCC(N)=O)NC1=O (YIQNCGC(X1)G-NH2; linker N-5 via X2) .
output: 74.7

====

Consider the following compounds and their measured %max readings.
Molecular target: Oxytocin receptor (Homo sapiens)
Assay: Agonist activity at recombinant human Gi/Go-coupled OTR expressed in CHOK1 cells assessed as induction of beta-arrestin recruitment measured after 90 mins in absence of 10% FBS by pathhunter assay relative to oxytocin
Type: cell-based
Numbered stars: 1 amine (or outer) side, 2 acyl side, 3 side chain; on linkers, the order of the positions; unused ones are H or OH. Bridge positions count the residues as written; N and C are the ends. Square brackets hold non-standard residues; d marks the D form. Peptide text beside a SMILES is read from it. * marks the point of attachment. X1 = O=C(O)CCCCCCCCCCCCCCCCC(=O)N[C@@H](CCCCNC(=O)CCOCCOCCNC(=O)CCOCCOCCNC(=O)C*)C(=O)O; X4 = O=C(O)CCCCCCCCCCCCCCCCC(=O)NCCOCCOCCOCCNC(=O)C*; X3 = CCCCCCCCCCCCCC(=O)NCCOCCOCCNC(=O)C*; X2 = O=C(CCC[*:2])[*:1]; Sar = CNCC(=O)O

These recorded examples may help you get a feel for the data.
CC[C@H](C)[C@@H]1NC(=O)[C@H](Cc2ccc(O)cc2)NC(=O)CCCSC[C@@H](C(=O)NCC(=O)N[C@@H](CSCC(=O)NCCOCCOCCOCCNC(=O)CCCCCCCCCCCCCCCCC(=O)O)C(=O)NCC(N)=O)NC(=O)[C@H](CC(N)=O)NC(=O)[C@H](CCC(N)=O)NC1=O (YIQNCGC(X4)G-NH2; linker N-5 via X2); 117%
CC[C@H](C)[C@@H]1NC(=O)[C@H](Cc2ccc(O)cc2)NC(=O)CCCSC[C@@H](C(=O)NCC(=O)N[C@@H](CSCC(=O)NCCOCCOCCC(=O)NCCOCCOCCC(=O)NCCCC[C@H](NC(=O)CCCCCCCCCCCCCCCCC(=O)O)C(=O)O)C(=O)NCC(N)=O)NC(=O)[C@H](CC(N)=O)NC(=O)[C@H](CCC(N)=O)NC1=O (YIQNCGC(X1)G-NH2; linker N-5 via X2); 125%
CCCCCCCCCCCCCC(=O)NCCOCCOCCNC(=O)CSC[C@H](NC(=O)CNC(=O)[C@@H]1CSCCCC(=O)N[C@@H](Cc2ccc(O)cc2)C(=O)N[C@@H]([C@@H](C)CC)C(=O)N[C@@H](CCC(N)=O)C(=O)N[C@@H](CC(N)=O)C(=O)N1)C(=O)NCC(N)=O (YIQNCGC(X3)G-NH2; linker N-5 via X2); 116%

input: Give the measured %max of CC[C@H](C)[C@@H]1NC(=O)[C@H](Cc2ccc(O)cc2)NC(=O)CCCSC[C@@H](C(=O)NCC(=O)N[C@@H](CSCC(=O)NCCOCCOCCC(=O)NCCOCCOCCC(=O)NCCCC[C@H](NC(=O)CCCCCCCCCCCCCCCCC(=O)O)C(=O)O)C(=O)N(C)CC(N)=O)NC(=O)[C@H](CC(N)=O)NC(=O)[C@H](CCC(N)=O)NC1=O (YIQNCGC(X1)[Sar]-NH2; linker N-5 via X2) .
output: 50%

input: Give the measured %max of CCCCCCCCCCCCCC(=O)NCCOCCOCCNC(=O)CSC[C@H](NC(=O)CNC(=O)[C@@H]1CSCCCC(=O)N[C@@H](Cc2ccc(O)cc2)C(=O)N[C@@H]([C@@H](C)CC)C(=O)N[C@@H](CCC(N)=O)C(=O)N[C@@H](CC(N)=O)C(=O)N1)C(=O)N(C)CC(N)=O (YIQNCGC(X3)[Sar]-NH2; linker N-5 via X2) .
output: 57%

input: Give the measured %max of CC[C@H](C)[C@@H]1NC(=O)[C@H](Cc2ccc(O)cc2)NC(=O)CCCSC[C@@H](C(=O)NCC(=O)N[C@@H](CSCC(=O)NCCOCCOCCOCCNC(=O)CCCCCCCCCCCCCCCCC(=O)O)C(=O)N(C)CC(N)=O)NC(=O)[C@H](CC(N)=O)NC(=O)[C@H](CCC(N)=O)NC1=O (YIQNCGC(X4)[Sar]-NH2; linker N-5 via X2) .
output: 34%
